- System: ACHN renal
- protocolSummary: NCI tumour cell line growth inhibition, 48 h

compound	GI50
N=C(N)c1ccc(-c2ccc(-c3ccccc3)o2)cc1	1.67 µM
c1ccc(COc2ccc(Nc3ncnc4ccc(-c5ccco5)cc34)cc2)cc1	6.75 µM
Cc1nc(N=C(N)N)nc2ccc3ccccc3c12	1.79 µM
CC1(C)CCC(CN2CCN(c3ccc(C(=O)NS(=O)(=O)c4ccc(NCC5CCOCC5)c([N+](=O)[O-])c4)c(Oc4cnc5[nH]ccc5c4)c3)CC2)=C(c2ccc(Cl)cc2)C1	2.93 µM
c1ccc(CNc2nc(Nc3ccc(-c4nc5ccccc5[nH]4)cc3)c3cn[nH]c3n2)cc1	2.29 µM
O=C(O)Cc1ccccc1	> 1000 µM
CC1OC(OC2C(OC3CCC4(C)C(CCC5(C)C4CC=C4C6CC(C)(C)CCC6(CO)C(O)CC45C)C3(C)C)OC(C(=O)O)C(OC3OC(COC4OC(CO)C(O)C(O)C4O)C(O)C(O)C3O)C2O)C(O)C(O)C1O (stereo not drawn)	4.81 µM
CC(=O)[CH-]C(=O)c1ccccc1.CC(=O)[CH-]C(=O)c1ccccc1.[O-]Cc1cccs1.[O-]Cc1cccs1.[Ti+4]	> 100 µM

====

- Tested on: TK-10 renal
- protocolSummary: NCI tumour cell line growth inhibition, 48 h
measureName: TGI

In [3]: df
Out[3]:
                                    compound  systemtested   measured
 0  COc1ccc(/C=N/Nc2nc3ccccc3c(=O)n2-c2ccccc2)cc1   TK-10 renal   > 100 µM
 1  CC(=O)N(CCc1ccccc1)C(C)(C#N)c1ccccc1 (centres undefined)   TK-10 renal   > 100 µM
 2  CC(=O)C(CN1CCOCC1)C(c1ccccc1)c1c(O)c2ccccc2oc1=O (centres undefined)   TK-10 renal   > 100 µM
 3  COc1ccc(C(NCCNC(c2ccc(OC)c(OC)c2)c2cc3c(cc2O)OCO3)c2cc3c(cc2O)OCO3)cc1OC (centres undefined)   TK-10 renal    12.7 µM
 4                           O=C(O)Cc1ccccc1   TK-10 renal  > 2000 µM
 5  O=[N+]([O-])c1ccc(N=Nc2c(O)[nH]c3ccc(Br)cc23)c([N+](=O)[O-])c1   TK-10 renal    37.8 µM
 6  CC1(C)CCC(CN2CCN(c3ccc(C(=O)NS(=O)(=O)c4ccc(NCC5CCOCC5)c([N+](=O)[O-])c4)c(Oc4cnc5[nH]ccc5c4)c3)CC2)=C(c2ccc(Cl)cc2)C1   TK-10 renal    6.34 µM
 7       NC(=NCc1ccccc1)N/N=C\c1ccnc2ccccc12   TK-10 renal    32.1 µM
 8               NC(=S)NS(=O)(=O)c1ccc(F)cc1   TK-10 renal   > 100 µM
 9  CN(C)c1ccc(N=C(C#N)c2nc(N)nc(N3CCOCC3)n2)cc1   TK-10 renal    63.6 µM
10  O=C1c2cccnc2-c2nc(-c3ccccc3)cc3c2c1nc1ccccc13   TK-10 renal  > 85.2 µM
11  CC(=O)NNc1nc(C)c(C(/C=C/c2ccc3c(c2)OCO3)=N/NC(=O)c2ccncc2)s1   TK-10 renal   > 100 µM
12             COc1ccc(C(=O)Nc2ccccc2C#N)cc1   TK-10 renal   > 100 µM
13              C#CCSc1nnnn1-c1ccc(Br)c(C)c1   TK-10 renal   > 100 µM
14  CC1(C)CC(C2CC(C)(C)CC(C)(C)[C@H]2O)[C@@H](O)C(C)(C)C1 (some centres undefined)   TK-10 renal   > 100 µM
15  Nc1cccc2cc(S(=O)(=O)Nc3ccc(C(=O)O)cc3)ccc12   TK-10 renal   > 100 µM
16  CN(Cc1cnc2nc(N)nc(N)c2n1)c1ccc(C(=O)NC2CCCCC2)cc1   TK-10 renal   > 100 µM
17  CCCN=C1S/C(=C/c2ccc(OC)c(OC)c2)C(=O)N1c1ccccc1   TK-10 renal    55.2 µM
18  CC1(C)OCC(C2OC(On3nnc4ccc(Cl)cc43)C3OC(C)(C)OC23)O1 (centres undefined)   TK-10 renal   > 100 µM
